biological target: T1, human chemokine (C-C motif) receptor 8 (CCR8) protein (human, UniProt P51685 1-355); assay: cell binding, CCR8-expressing U2OS cells, curve fit; design: unit not given here
T1 construct: whole, on cells; also called human CCR8
Quantity Name: LogEC50
Number, no unit, nothing else.

Known LogEC50 results, listed for orientation:
137-H3L3 (antibody, V domains shown, Humanized 137D1H10) VH: EVQLVESGGGLVQPGGSLKLSCAASGFTFNTYAMNWVRQASGKGLEWVARIRSKANNYATYYADSVKDRFTISRDDSKNTLYLQMNNLKTEDTAVYYCVRDRSRGEDYAMDYWGQGTLVTVSS VL: DIVMTQSPLSLPVTPGEPVSISCRSSKSLLHSNANTYLYWFLQKPGQSPQLLIYRMSNLASGVPDRFSGSGSGTAFTLKISRVEAEDVGVYYCMQHLEYPFTFGQGTKLEIK
-0.717
137-H2L3 (antibody, V domains shown, Humanized 137D1H10) VH: EVQLVESGGGLVQPGGSLKLSCAASGFTFNTYAMNWVRQASGKGLEWVGRIRSKANNYATYYADSVKDRFTISRDDSKNTAYLQMNNLKTEDTAVYYCVRDRSRGEDYAMDYWGQGTLVTVSS VL: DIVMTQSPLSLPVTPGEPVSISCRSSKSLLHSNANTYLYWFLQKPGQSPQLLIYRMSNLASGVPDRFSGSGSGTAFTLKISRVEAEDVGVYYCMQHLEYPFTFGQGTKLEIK
-0.484
137-H2L2 (antibody, V domains shown, Humanized 137D1H10) VH: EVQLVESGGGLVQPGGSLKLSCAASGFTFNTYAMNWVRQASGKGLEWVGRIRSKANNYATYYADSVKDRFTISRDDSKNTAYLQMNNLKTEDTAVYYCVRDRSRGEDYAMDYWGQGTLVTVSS VL: DIVMTQSPLSLPVTPGEPASISCRSSKSLLHSNANTYLYWFLQKPGQSPQLLIYRMSNLASGVPDRFSGSGSGTAFTLKISRVEAEDVGVYYCMQHLEYPFTFGQGTKLEIK
-0.842

Field: next binder
// recorded LogEC50 for 137-xi (antibody, V domains shown, also called 137D1H10; chimeric 137D1H10) VH: EVQLVESGGGLVQPKGSLKLSCTASGFTFNTYAMNWVRQAPGKGLEWVARIRSKANNYATYYADSVKDRFTISRDDSQRILYLQMNNLKAEDTAMYYCVRDRSRGEDYAMDYWGQGTSVTVSS VL: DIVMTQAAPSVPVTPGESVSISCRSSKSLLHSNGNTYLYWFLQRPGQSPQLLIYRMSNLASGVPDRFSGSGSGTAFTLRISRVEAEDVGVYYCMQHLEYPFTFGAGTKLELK : -0.605
